B1: Arrestin domain-containing protein 3 (Homo sapiens), Q96B67 (parent)
chain: MVLGKVKSLTISFDCLNDSNVPVYSSGDTVSGRVNLEVTGEIRVKSLKIHARGHAKVRWTESRNAGSNTAYTQNYTEEVEYFNHKDILIGHERDDDNSEEGFHTIHSGRHEYAFSFELPQTPLATSFEGRHGSVRYWVKAELHRPWLLPVKLKKEFTVFEHIDINTPSLLSPQAGTKEKTLCCWFCTSGPISLSAKIERKGYTPGESIQIFAEIENCSSRMVVPKAAIYQTQAFYAKGKMKEVKQLVANLRGESLSSGKTETWNGKLLKIPPVSPSILDCSIIRVEYSLMVYVDIPGAMDLFLNLPLVIGTIPLHPFGSRTSSVSSQCSMNMNWLSLSLPERPEAPPSYAEVVTEEQRRNNLAPVSACDDFERALQGPLFAYIQEFRFLPPPLYSEIDPNPDQSADDRPSCPSR

Variants of: B1
Conditions: with adrb2_human ADRB2, P07550
Reported property: effect of a mutation on the interaction

Variant identifier	effect of a mutation on the interaction
Y394A	decreasing interaction
P346A	decreasing interaction
Y349A	decreasing interaction
P391A	decreasing interaction
P392A	decreasing interaction

Now for another entry.
Give its effect of a mutation on the interaction value. Item: `P347A`
decreasing interaction
